Reported inhibition at 48 h, 10 ug/ml values are given for each entry in this list.
# Test Details: Cytotoxicity against human MCF7 cells assessed as growth inhibition at 10 ug/ml after 48 hrs by MTT assay relative to control
# Type: cell-based
# Measurement Context: read-out: GI
Readout Type: inhibition at 48 h, 10 ug/ml (%)

cpd_smiles=Cc1cccc2cc(/C=C3\CN(C)C/C(=C\c4cc5cccc(C)c5nc4Cl)C3=O)c(Cl)nc12 numeric_value=0
cpd_smiles=COc1ccc2nc(Cl)c(/C=C3\CNC/C(=C\c4cc5cc(OC)ccc5nc4Cl)C3=O)cc2c1 numeric_value=32.5
cpd_smiles=Cc1cccc2cc(/C=C3\CNC/C(=C\c4cc5cccc(C)c5nc4Cl)C3=O)c(Cl)nc12 numeric_value=0
cpd_smiles=COc1ccc2cc(/C=C3\CN(C)C/C(=C\c4cc5ccc(OC)cc5nc4Cl)C3=O)c(Cl)nc2c1 numeric_value=-5.5
